- Tested on: U-251
- Procedure Details: NCI tumour cell line growth inhibition, 48 h
Active and inactive are the calls of the source. Rule as the data show it: active = GI50 up to about 1.1 µM and inactive = higher.
Value Type: GI50

Consider the compound CCc1cccc(C)c1NC(=O)CC1C(=O)Nc2ccccc2[S+]1[O-] (stereo not drawn) and give its measured GI50.
18.7 µM (inactive)

Consider the compound COc1cccc(N2C(=O)C3c4[nH]c5ccccc5c4C4CCCC4C3C2=O)c1 (stereo not drawn) and give its measured GI50.
4.06 µM (inactive)

Consider the compound COC(=O)/C=C\C(C#N)(C#N)/N=C/c1ccc(Br)cc1 and give its measured GI50.
13.6 µM (inactive)

Consider the compound O=C1/C(=N\O)S(=O)(=O)c2ccccc21 and give its measured GI50.
> 100 µM (inactive)

Consider the compound CC(CNC(=O)c1ccccc1)(CNC(=O)c1ccccc1)[N+](=O)[O-] and give its measured GI50.
> 100 µM (inactive)

Consider the compound Cn1ccnc1Cn1cc(-c2cccc(-c3cn[nH]c3)c2)cn1 and give its measured GI50.
84.5 µM (inactive)

Consider the compound CC1(C)c2ccccc2C(O)C12CCC(=O)CC2 (stereo not drawn) and give its measured GI50.
> 100 µM (inactive)

Consider the compound COc1ccc2c(c1)OCCCN(C)OC2c1ccccc1 (stereo not drawn) and give its measured GI50.
> 100 µM (inactive)

###

- Test system: OVCAR-8
- Procedure Details: NCI tumour cell line growth inhibition, 48 h
Calls of active or inactive are those of the source. No stated cut-off is given here; in the data, active = GI50 up to about 1.1 µM and inactive = higher.
Would you kindly list GI50 for each of these molecules?

Consider the molecule c1cc(-c2ccc(-c3nc4ccc(C5=NCCN5)cc4s3)s2)ccc1C1=NCCN1 and give its measured GI50.
0.296 µM (active)

Consider the molecule N/C(=N\c1ccc(Cl)c(Cl)c1)c1ccccc1N and give its measured GI50.
26.4 µM (inactive)

Consider the molecule O=C(CN(c1ccc(S(=O)(=O)O)cc1)c1ccc(S(=O)(=O)O)cc1)Nn1cnc2ccc(S(=O)(=O)N(c3ccc(S(=O)(=O)O)cc3)c3ccc(S(=O)(=O)O)cc3)cc2c1=O and give its measured GI50.
> 100 µM (inactive)

Consider the molecule CC(N/N=C(\S)N1CCN(c2ccccn2)CC1)c1nccc2ccccc12 (stereo not drawn) and give its measured GI50.
0.104 µM (active)

Consider the molecule O=C(OC1CCC2OOC1O2)c1ccc([N+](=O)[O-])cc1 (stereo not drawn) and give its measured GI50.
> 100 µM (inactive)

Consider the molecule O=C(NCCC1CN(S(=O)(=O)C(F)(F)F)c2ccccc21)OCc1ccccc1 (stereo not drawn) and give its measured GI50.
> 100 µM (inactive)

Consider the molecule O=C1C(Cl)C2(CC(/C=C/c3ccccc3)=NN2c2cccc(S(=O)(=O)O)c2)N1c1nc2ccccc2s1 (stereo not drawn) and give its measured GI50.
11.9 µM (inactive)

Consider the molecule CCOP(=O)(OCC)C(c1ccccc1)N(C(=O)NC(F)(F)F)c1ccc(C)cc1 (stereo not drawn) and give its measured GI50.
> 100 µM (inactive)

Consider the molecule CCOC(=O)Nc1ccc2c(c1)c(CCCCCCc1nc3ccccc3c3ccc(NC(=O)OCC)cc13)nc1ccccc12 and give its measured GI50.
25.4 µM (inactive)

Consider the molecule COC(=O)/N=[N+](\[O-])C(c1ccc(OC)cc1)C1CCCCC1 (stereo not drawn) and give its measured GI50.
4.75 µM (inactive)

Consider the molecule CC1CSc2nc3nc(S)nc-3c(O)n2C1 (stereo not drawn) and give its measured GI50.
> 100 µM (inactive)

Consider the molecule COC(=O)c1ccc(-c2nc(C#N)c(N)o2)cc1 and give its measured GI50.
57.1 µM (inactive)

Consider the molecule C/C=C(\CCOS(=O)(=O)c1ccc(C)cc1)[Si](C)(C)C and give its measured GI50.
> 100 µM (inactive)

Consider the molecule C[n+]1c2ccccc2c2/c(=C\C#N)c3ccccc3n21 and give its measured GI50.
3.52 µM (inactive)

Consider the molecule C=C1C(C2(C)C=CC(=O)OC3(C)COC(=O)CC32)C(OC=O)C(OC(=O)C(O)C(C)CC)C2(C)C(c3ccoc3)CC(OC(C)=O)C12O (stereo not drawn) and give its measured GI50.
> 100 µM (inactive)

Consider the molecule c1cncc(O[Si](Oc2cccnc2)(Oc2cccnc2)Oc2cccnc2)c1 and give its measured GI50.
> 100 µM (inactive)

Consider the molecule COc1ccc(OC)c(NCC(=O)Nn2cnc3ccc(S(=O)(=O)Nc4cc(OC)ccc4OC)cc3c2=O)c1 and give its measured GI50.
> 100 µM (inactive)

Consider the molecule CN(C)CCC(/C=C/c1ccccc1)=N\Nc1ccc(Cl)cc1 and give its measured GI50.
2.98 µM (inactive)

Consider the molecule N#CCN1c2ccccc2CCC1Cl (stereo not drawn) and give its measured GI50.
> 10 µM (inactive)

Consider the molecule CC1=C2C(=CC(C)(C)[C@@H]2O)C(=O)[C@](C)(O)C12CC2 [ILLUDIN M] and give its measured GI50.
< 0.018 µM (active)

Consider the molecule O=C1C=CC(=O)c2c1ccc1c3ccccc3n(Cc3cccc([N+](=O)[O-])c3)c21 and give its measured GI50.
30.4 µM (inactive)

Consider the molecule CCCCCCCCCCCCCC(=O)OC1C(O)C(CO)OC(OC)C1NC(=O)N(CCCl)N=O (stereo not drawn) and give its measured GI50.
43.6 µM (inactive)

Consider the molecule CNc1nnnn1C1OC(CO)C(O)C1O (stereo not drawn) and give its measured GI50.
> 100 µM (inactive)

Consider the molecule CCOc1cc2c(cc1O)/C(=N/NS(=O)(=O)c1ccc(C)cc1)C[C@@H]1[C@@H]2CC[C@]2(C)[C@@H](O)CC[C@@H]12 and give its measured GI50.
12.4 µM (inactive)

Consider the molecule CC1(O)CC(C(F)(F)F)(C(F)(F)F)OC1=O (stereo not drawn) and give its measured GI50.
> 10 µM (inactive)

Consider the molecule NC(=S)N/N=C/c1ncccc1N [TRIAPINE] and give its measured GI50.
0.568 µM (active)

Consider the molecule CCCCC1C=Cn2c(=O)oc3c(OC(C)C)c(C)c(O)c1c32 (stereo not drawn) and give its measured GI50.
1.73 µM (inactive)

Consider the molecule Cc1ccc(S(=O)(=O)SC(C)(C)C)cc1 and give its measured GI50.
21.3 µM (inactive)

###

- System: ACHN
- Procedure Details: NCI tumour cell line growth inhibition, 48 h
Calls of active or inactive are those of the source. Rule as the data show it: active = GI50 up to about 1.1 µM and inactive = higher.
Respond only with the outcome that fits, drawn from active, inactive

I'd appreciate the recorded outcome for N#Cc1c2ccccc2cn1-c1ccc(F)cc1 from this test.
inactive

I'd appreciate the recorded outcome for CC(C)n1c2c([n+](C)c1/C=C/c1ccccc1)C(=O)c1ccccc1C2=O from this test.
inactive

I'd appreciate the recorded outcome for Cn1c(=O)c(-c2ccccc2)c(N=[N+]=[N-])c2ccccc21 from this test.
inactive

I'd appreciate the recorded outcome for COC(=O)/C=C\C(C#N)(C#N)/N=C/c1ccc(Br)cc1 from this test.
inactive

I'd appreciate the recorded outcome for Cc1ccc(-c2cn3c(nc4ccccc43)c(-c3ccccc3)n2)cc1 from this test.
inactive

I'd appreciate the recorded outcome for COC(=O)CCN1CCN(CCO)CC1C (centres undefined) from this test.
inactive

I'd appreciate the recorded outcome for CC1CC[P+](c2ccccc2)(c2ccccc2)c2c1ccc1ccccc21 (centres undefined) from this test.
inactive

I'd appreciate the recorded outcome for O=C(c1ccccc1)c1c(-c2ccccc2)sc2nc3ccccc3nc12 from this test.
inactive

I'd appreciate the recorded outcome for Cn1c(CC(O)c2nc3ccccc3n2C)nc2ccccc21 (centres undefined) from this test.
inactive

I'd appreciate the recorded outcome for COc1cc([C@H]2c3cc4c(cc3[C@H](NCc3ccc([N+](=O)[O-])cc3)C3COC(=O)[C@H]32)OCO4)cc(OC)c1O (some centres undefined) from this test.
active

I'd appreciate the recorded outcome for COc1cc(/C=C2\C[C@H]3[C@@H]4CC=C5C[C@@H](N6CCCC6)CC[C@]5(C)[C@H]4CC[C@]3(C)[C@H]2O)cc(OC)c1OC from this test.
inactive

I'd appreciate the recorded outcome for COc1cc(C2c3c(ccc4ccccc34)C(=O)C3CCC(=O)N32)cc(OC)c1OC (centres undefined) from this test.
inactive

I'd appreciate the recorded outcome for CC1=C(C(=O)CC(=O)C(=O)NC2C3CC4CC(C3)CC2C4)Sc2ccccc2N1 (centres undefined) from this test.
inactive

I'd appreciate the recorded outcome for CC[C@@H]1/C=C/C=C/C[C@H](C)[C@@H](O)[C@](C)(O)C(=O)[C@H](C)[C@@H](O)[C@H](C)C(=O)[C@H](C)[C@@H](O)[C@H](C)/C=C/C(=O)O[C@H]2[C@@H](C)[C@@H](CC1)O[C@@]1(CC[C@@H](C)[C@@H](CC(C)O)O1)[C@@H]2C (some centres undefined) from this test.
inactive

I'd appreciate the recorded outcome for CCOC(=O)C1(O)C(=O)C2=C3C(=O)OC(C4OC(=O)c5c(c(O)c(O)c(O)c5C31)-c1c(cc(O)c(O)c1O)C(=O)OC1COC(=O)c3cc(O)c(O)c(O)c3-c3c(cc(O)c(O)c3O)C(=O)OC14)[C@@H]2O (some centres undefined) from this test.
inactive

I'd appreciate the recorded outcome for COc1ccc(OC)c(NCC(=O)Nn2cnc3ccc(S(=O)(=O)Nc4cc(OC)ccc4OC)cc3c2=O)c1 from this test.
inactive

I'd appreciate the recorded outcome for C[C@@H]1CC[C@@]2(C)[C@H](C)/C(=C\COC(=O)/C=C/c3ccc(O)c(O)c3)CC[C@@]12C [NAVICULYL CAFFEATE] from this test.
inactive

I'd appreciate the recorded outcome for CCOC(=O)C(=Cc1cccnc1C)C(=O)OCC from this test.
inactive

I'd appreciate the recorded outcome for CC1=C2C(=CC(C)(C)[C@@H]2O)C(=O)[C@](C)(O)C12CC2 from this test.
active

I'd appreciate the recorded outcome for Cc1noc2cccc(OCc3ccccc3)c12 from this test.
inactive

I'd appreciate the recorded outcome for N=C(N)NCC[C@H](NC(=O)OCCCCCn1ccc(=O)[nH]c1=O)C(=O)O from this test.
inactive

I'd appreciate the recorded outcome for O=C1C=CC(=O)c2c1ccc1c3ccccc3n(Cc3cccc([N+](=O)[O-])c3)c21 from this test.
inactive

I'd appreciate the recorded outcome for ClCCCCOC1CCCCO1 (centres undefined) from this test.
inactive

I'd appreciate the recorded outcome for COc1ccc2c(ccc3c(C(=O)NCCCN(C)CCCNC(=O)c4cn(C)c5c4ccc4cc(OC)ccc45)cn(C)c32)c1 from this test.
inactive
